Origin of the recorded values: ChEMBL document CHEMBL5291721

# AC50 listing for each entry below
# Experimental target: Muscarinic acetylcholine receptor M2 (Homo sapiens, UniProt P08172); further: assay procedure not described here
# Sequence (P08172 whole entry): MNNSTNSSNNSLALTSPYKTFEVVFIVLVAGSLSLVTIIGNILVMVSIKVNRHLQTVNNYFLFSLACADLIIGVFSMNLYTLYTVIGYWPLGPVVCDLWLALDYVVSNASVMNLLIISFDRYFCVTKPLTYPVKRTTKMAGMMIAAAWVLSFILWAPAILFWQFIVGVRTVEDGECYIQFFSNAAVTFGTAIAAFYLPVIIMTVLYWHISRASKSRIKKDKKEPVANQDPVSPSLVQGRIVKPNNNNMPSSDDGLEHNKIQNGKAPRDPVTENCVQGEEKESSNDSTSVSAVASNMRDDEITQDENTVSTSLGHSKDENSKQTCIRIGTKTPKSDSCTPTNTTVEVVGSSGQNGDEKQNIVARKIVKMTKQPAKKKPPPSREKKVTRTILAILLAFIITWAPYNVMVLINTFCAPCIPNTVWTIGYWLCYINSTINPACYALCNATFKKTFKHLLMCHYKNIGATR

Example results:
| Compound | Experimental target | AC50 |
| --- | --- | --- |
| CC(O)CO (stereo not drawn) | Muscarinic acetylcholine receptor M2 (Homo sapiens, UniProt P08172) | > 30 µM |
| O=C1NCC2(CCN(CCc3ccccc3)CC2)O1 [FENSPIRIDE] | Muscarinic acetylcholine receptor M2 (Homo sapiens, UniProt P08172) | 16.4 µM |
| O=C(O)c1cccc(-c2noc(-c3ccccc3F)n2)c1 | Muscarinic acetylcholine receptor M2 (Homo sapiens, UniProt P08172) | > 30 µM |

Ask: For Muscarinic acetylcholine receptor M2 (Homo sapiens, UniProt P08172), provide AC50 of O=C(O)CCn1c2c(c3ccccc31)C[C@H](NS(=O)(=O)c1ccc(F)cc1)CC2 please.
Reply: > 30 µM

Ask: For Muscarinic acetylcholine receptor M2 (Homo sapiens, UniProt P08172), provide AC50 of Nc1ccc(S(N)(=O)=O)cc1 [SULFANILAMIDE] please.
Reply: > 30 µM

Ask: For Muscarinic acetylcholine receptor M2 (Homo sapiens, UniProt P08172), provide AC50 of O=C1CN=C(c2ccccc2)c2c(sc3c2CCCC3)N1 please.
Reply: > 30 µM

Ask: For Muscarinic acetylcholine receptor M2 (Homo sapiens, UniProt P08172), provide AC50 of N/N=c1/cc2c(n[nH]1)CCN(C(=O)c1ccccc1)C2 please.
Reply: > 30 µM

Ask: For Muscarinic acetylcholine receptor M2 (Homo sapiens, UniProt P08172), provide AC50 of CN(Cc1cc(Br)cc(Br)c1N)C1CCCCC1 please.
Reply: > 30 µM

Ask: For Muscarinic acetylcholine receptor M2 (Homo sapiens, UniProt P08172), provide AC50 of Oc1cccc2cccnc12 please.
Reply: > 30 µM

Ask: For Muscarinic acetylcholine receptor M2 (Homo sapiens, UniProt P08172), provide AC50 of CN(C)CCCN1c2ccccc2CCc2ccc(Cl)cc21 please.
Reply: 0.451 µM

Ask: For Muscarinic acetylcholine receptor M2 (Homo sapiens, UniProt P08172), provide AC50 of CCc1ccc(CCOc2ccc(CC3SC(=O)NC3=O)cc2)nc1 (stereo not drawn) please.
Reply: > 30 µM

Ask: For Muscarinic acetylcholine receptor M2 (Homo sapiens, UniProt P08172), provide AC50 of CC(C)Cc1ccc(C(C)C(=O)NO)cc1 (stereo not drawn) please.
Reply: > 30 µM

Ask: For Muscarinic acetylcholine receptor M2 (Homo sapiens, UniProt P08172), provide AC50 of C[C@@H]1C[C@H]2[C@@H]3CCC4=CC(=O)C=C[C@]4(C)[C@@]3(F)[C@@H](O)C[C@]2(C)[C@H]1C(=O)CO please.
Reply: > 30 µM
